assay: activity coefficient (dimensionless); of the first substance listed, at infinite dilution; xn = mol fraction of the nth substance listed; settings: 333.15 K; 101.33 kPa; Liquid; Chromatography; x1 = 0
assay-endpoint: activity coefficient

CC(C)CC(C)(C)C [2,2,4-trimethylpentane] + CCCCC(CC)CN(CC(CC)CCCC)C(=O)C(C)C :: 3.33

I = CCCc1ccccc1 [propylbenzene] + CCCCC(CC)CN(CC(CC)CCCC)C(=O)C(C)C
II = ClCCl [dichloromethane] + CCCCC(CC)CN(CC(CC)CCCC)C(=O)C(C)C
III = CCCCCCCC [octane] + CCCCC(CC)CN(CC(CC)CCCC)C(=O)C(C)C
IV = C=CCCCC [hex-1-ene] + CCCCC(CC)CN(CC(CC)CCCC)C(=O)C(C)C
V = C=O [methanal] + CCCCC(CC)CN(CC(CC)CCCC)C(=O)C(C)C
Problem: Sort low-to-high on activity coefficient, please. Hello, could you send the labels back in the order asked? Thank you.
Result: V, II, IV, III, I
(V: 0.052, II: 0.506, IV: 1.37, III: 8.35, I: 14.7)

A = CCOC(C)=O [ethyl acetate] + CCCCC(CC)CN(CC(CC)CCCC)C(=O)C(C)C
B = CCCCCCCCC [nonane] + CCCCC(CC)CN(CC(CC)CCCC)C(=O)C(C)C
C = CCCC(=O)CC [3-hexanone] + CCCCC(CC)CN(CC(CC)CCCC)C(=O)C(C)C
Problem: Hello, I need these entries ordered by activity coefficient, highest reading first. Thanks! Hello, could you send the labels back in the order asked? Thank you.
Result: B, C, A

----------
assay: activity coefficient (dimensionless); of the first substance listed, at infinite dilution; xn = mol fraction of the nth substance listed; conditions: 353.15 K; 101.33 kPa; Liquid; Chromatography; x1 = 0
assay-endpoint: activity coefficient

Check out these entries, answers already filled in.
ClC(Cl)(Cl)Cl [tetrachloromethane] + CCCCC(CC)CN(CC(CC)CCCC)C(=O)C(C)C :: 0.935
Cc1cccc(C)c1 [1,3-dimethylbenzene] + CCCCC(CC)CN(CC(CC)CCCC)C(=O)C(C)C :: 5.33

1 = c1ccccc1 [benzene] + CCCCC(CC)CN(CC(CC)CCCC)C(=O)C(C)C
2 = CCCCCCCCCCC [undecane] + CCCCC(CC)CN(CC(CC)CCCC)C(=O)C(C)C
Problem: Consider 1 and 2 . Which of these has its activity coefficient at a higher number? Please indicate the selected item by its label.
Result: 2
(2: 27.5, 1: 1.37)

----------
assay: activity coefficient (dimensionless); of the first substance listed, at infinite dilution; xn = mol fraction of the nth substance listed; settings: 363.15 K; 101.33 kPa; Liquid; Chromatography; x1 = 0
assay-endpoint: activity coefficient

Check out these entries, answers already filled in.
C=CCCCCCC [oct-1-ene] + CCCCC(CC)CN(CC(CC)CCCC)C(=O)C(C)C :: 2.94
Cc1cccc(C)c1 [1,3-dimethylbenzene] + CCCCC(CC)CN(CC(CC)CCCC)C(=O)C(C)C :: 4.13
CC#N [acetonitrile] + CCCCC(CC)CN(CC(CC)CCCC)C(=O)C(C)C :: 0.718
ClC(Cl)(Cl)Cl [tetrachloromethane] + CCCCC(CC)CN(CC(CC)CCCC)C(=O)C(C)C :: 0.727
C=O [methanal] + CCCCC(CC)CN(CC(CC)CCCC)C(=O)C(C)C :: 0.041
CCOC(C)=O [ethyl acetate] + CCCCC(CC)CN(CC(CC)CCCC)C(=O)C(C)C :: 0.7

A = CCCCCC(C)=O [2-heptanone] + CCCCC(CC)CN(CC(CC)CCCC)C(=O)C(C)C
B = CCCCCCCCCCC [undecane] + CCCCC(CC)CN(CC(CC)CCCC)C(=O)C(C)C
Problem: Consider A and B . Which of these has its activity coefficient at a higher number? Please indicate the selected item by its label.
Result: B
(B: 25.5, A: 5)

A = CCCCCCCCCC [decane] + CCCCC(CC)CN(CC(CC)CCCC)C(=O)C(C)C
B = CCCCCC [hexane] + CCCCC(CC)CN(CC(CC)CCCC)C(=O)C(C)C
C = CCCCCCCC [octane] + CCCCC(CC)CN(CC(CC)CCCC)C(=O)C(C)C
D = ClCCl [dichloromethane] + CCCCC(CC)CN(CC(CC)CCCC)C(=O)C(C)C
E = CCCc1ccccc1 [propylbenzene] + CCCCC(CC)CN(CC(CC)CCCC)C(=O)C(C)C
Problem: Hello, I need these entries ordered by activity coefficient, highest reading first. Thanks! Hello, could you send the labels back in the order asked? Thank you.
Result: A, E, C, B, D

P = C=CCCCCCCCC [1-decene] + CCCCC(CC)CN(CC(CC)CCCC)C(=O)C(C)C
Q = CC(C)CC(C)(C)C [2,2,4-trimethylpentane] + CCCCC(CC)CN(CC(CC)CCCC)C(=O)C(C)C
Problem: For P and Q , which recorded activity coefficient is lower? Please indicate the selected item by its label.
Result: Q

----------
test: activity coefficient (dimensionless); of the first substance listed, at infinite dilution; xn = mol fraction of the nth substance listed; details: 353.15 K; 101.33 kPa; Liquid; Chromatography; x1 = 0
assay-endpoint: activity coefficient

C=CCCCC [hex-1-ene] + CCCCC(CC)CN(CC(CC)CCCC)C(=O)C(C)C :: 0.957

P = ClC(Cl)Cl [trichloromethane] + CCCCC(CC)CN(CC(CC)CCCC)C(=O)C(C)C
Q = CC(C)CC(C)(C)C [2,2,4-trimethylpentane] + CCCCC(CC)CN(CC(CC)CCCC)C(=O)C(C)C
R = ClCCl [dichloromethane] + CCCCC(CC)CN(CC(CC)CCCC)C(=O)C(C)C
S = CC#N [acetonitrile] + CCCCC(CC)CN(CC(CC)CCCC)C(=O)C(C)C
Problem: Hello, I need these entries ordered by activity coefficient, highest reading first. Thanks! Hello, could you send the labels back in the order asked? Thank you.
Result: Q, S, P, R
(Q: 2.09, S: 0.861, P: 0.586, R: 0.339)

----------
assay: activity coefficient (dimensionless); of the first substance listed, at infinite dilution; xn = mol fraction of the nth substance listed; conditions: 333.15 K; 101.33 kPa; Liquid; Chromatography; x1 = 0
assay-endpoint: activity coefficient

1 = C=CCCCCC [1-heptene] + CCCCC(CC)CN(CC(CC)CCCC)C(=O)C(C)C
2 = CCc1ccccc1 [ethylbenzene] + CCCCC(CC)CN(CC(CC)CCCC)C(=O)C(C)C
3 = CCCC(C)C [2-methylpentane] + CCCCC(CC)CN(CC(CC)CCCC)C(=O)C(C)C
Problem: Ranking criterion: activity coefficient, increasing numeric value. Items: as listed above. Hello, could you send the labels back in the order asked? Thank you.
Result: 3, 1, 2
(3: 0.938, 1: 2.89, 2: 8.75)

I = CCCCCCC [heptane] + CCCCC(CC)CN(CC(CC)CCCC)C(=O)C(C)C
II = c1ccccc1 [benzene] + CCCCC(CC)CN(CC(CC)CCCC)C(=O)C(C)C
Problem: Consider I and II . Which of these has its activity coefficient at a higher number? Please indicate the selected item by its label.
Result: I

----------
assay: activity coefficient (dimensionless); of the first substance listed, at infinite dilution; xn = mol fraction of the nth substance listed; conditions: 353.15 K; 101.33 kPa; Liquid; Chromatography; x1 = 0
assay-endpoint: activity coefficient

Check out these entries, answers already filled in.
Cc1ccccc1 [toluene] + CCCCC(CC)CN(CC(CC)CCCC)C(=O)C(C)C :: 2.5
CCc1ccccc1 [ethylbenzene] + CCCCC(CC)CN(CC(CC)CCCC)C(=O)C(C)C :: 4.96
CCCCCC(C)=O [2-heptanone] + CCCCC(CC)CN(CC(CC)CCCC)C(=O)C(C)C :: 6.2

I = CCCCCCCCC [nonane] + CCCCC(CC)CN(CC(CC)CCCC)C(=O)C(C)C
II = CCCCCCCC [octane] + CCCCC(CC)CN(CC(CC)CCCC)C(=O)C(C)C
Problem: Consider I and II . Which of these has its activity coefficient at a higher number? Please indicate the selected item by its label.
Result: I
(I: 11.8, II: 4.54)

----------
experiment: activity coefficient (dimensionless); of the first substance listed, at infinite dilution; xn = mol fraction of the nth substance listed; conditions: 333.15 K; 101.33 kPa; Liquid; Chromatography; x1 = 0
assay-endpoint: activity coefficient
Would you mind answering with just the numeric figure?

Check out these entries, answers already filled in.
ClC(Cl)(Cl)Cl [tetrachloromethane] + CCCCC(CC)CN(CC(CC)CCCC)C(=O)C(C)C :: 1.6
Cc1ccc(C)cc1 [1,4-dimethylbenzene] + CCCCC(CC)CN(CC(CC)CCCC)C(=O)C(C)C :: 9.01

Problem: Any idea what its activity coefficient is? The molecule is Cc1cccc(C)c1 [1,3-dimethylbenzene] + CCCCC(CC)CN(CC(CC)CCCC)C(=O)C(C)C
Result: 9.28

meta.source: the NIST ThermoML archive (doi:10.1021/acs.jced.8b00635)
